System: wild-type E. coli K-12
Type: cell-based, Escherichia coli
Details: K-12; antibiotic alone (PAβN checkerboard)
observedProperty: MICb Alone (µg/mL)
Numbers only, in µg/mL.

Previously resolved entries follow.
[
  {
    "substanceSmiles": "CC(=O)NC[C@H]1CN(c2ccc(N3CCOCC3)c(F)c2)C(=O)O1",
    "observedProperty": "MICb Alone",
    "outputUnit": "µg/mL",
    "measValue": 256
  },
  {
    "substanceSmiles": "CC(=O)O[C@H]1C[C@@]2(C)[C@@H](C[C@@H](O)[C@H]3[C@@]4(C)CC[C@@H](O)[C@@H](C)[C@@H]4CC[C@@]32C)/C1=C(\\CCC=C(C)C)C(=O)O",
    "observedProperty": "MICb Alone",
    "outputUnit": "µg/mL",
    "measValue": 1024
  },
  {
    "substanceSmiles": "CO[C@@H]1[C@@H](OC(N)=O)[C@@H](O)[C@H](Oc2ccc3c(O)c(NC(=O)c4ccc(O)c(CC=C(C)C)c4)c(=O)oc3c2C)OC1(C)C",
    "observedProperty": "MICb Alone",
    "outputUnit": "µg/mL",
    "measValue": 128
  },
  {
    "substanceSmiles": "CC[C@H]1OC(=O)[C@H](C)[C@@H](O[C@H]2C[C@@](C)(OC)[C@@H](O)[C@H](C)O2)[C@H](C)[C@@H](O[C@@H]2O[C@H](C)C[C@H](N(C)C)[C@H]2O)[C@](C)(O)C[C@@H](C)C(=O)[C@H](C)[C@@H](O)[C@]1(C)O",
    "observedProperty": "MICb Alone",
    "outputUnit": "µg/mL",
    "measValue": 64
  }
]

Give MICb Alone for Cc1onc(-c2ccccc2)c1C(=O)N[C@@H]1C(=O)N2[C@@H]1SC(C)(C)[C@@H]2C(=O)O tested on wild-type E. coli K-12. 512
